Every entry's value here was drawn from patent US11702422B2.

Test system: IL-17A-induced G-CSF production in human normal keratinocyte (NHK)
assay procedure: NHK Assay: IL-17A-induced G-CSF production in human normal keratinocytes
Assay type: cell-based
condition info: adult normal human keratinocytes, IL-17A 5 ng/mL, 24 h, simple average if tested more than once
Provide the reported IC50 of each item.
Answers are plain numbers, in nM.

Guide cases for IC50, answers given:
1. CC(C)n1nccc1C(=O)N[C@H](c1cn2ncc(C(NC(=O)CC(C(F)(F)F)C(F)(F)F)C3CC3)cc2n1)C1CCC(F)(F)CC1 (single isomer, unassigned) [Example 11]
1400
2. CC(O)c1nonc1C(=O)N[C@H](c1cn2ncc([C@H](NC(=O)CC3CC(F)(F)C3)C3CC3)cc2n1)C1CCC(F)(F)CC1 (single isomer, unassigned) [Example 396]
190

## Input Hi! What's the reported IC50 for CCOCC(NC(=O)CC1CC(F)(F)C1)c1cnn2cc([C@@H](NC(=O)c3nonc3C3CC3)C3CCC(F)(F)CC3)nc2c1 (single isomer, unassigned) [Example 526] on IL-17A-induced G-CSF production in human normal keratinocyte (NHK)?
## Output 1200
